Origin of values: paper PMC10675340

assay.text: In vivo biodistribution in normal Balb/c mice
Design: species or system mouse
assay.conditions: female, mouse, liver, iv, total radioactivity; normal Balb/c mice, 45 min p.i., i.v. tail vein, mean ± SD, n = 4-6; read-out: Liver uptake
Where a SMILES comes first, the peptide text is derived from it. [ ]: non-standard residue; d: D form. The star is where a group is joined. DOTA = O=C(O)CN1CCN(CC(=O)O)CCN(CC(=O)*)CCN(CC(=O)O)CC1; βAla = NCCC(=O)O
outcome.measure: tissue uptake at 0.75 h (%ID/g)
Dear colleague, please return just the value in %ID/g, with no unit written.

CC[C@H](C)[C@H](NC(=O)[C@H](Cc1ccc(O)cc1)NC(=O)[C@@H](NC(=O)[C@H](CCCNC(=N)N)NC(=O)[C@H](CC(=O)O)NC(=O)CCNC(=O)[C@H](CCCCN)NC(=O)CN1CCN(CC(=O)O)CCN(CC(=O)O)CCN(CC(=O)O)CC1)C(C)C)C(=O)N[C@@H](Cc1c[nH]cn1)C(=O)N1CCC[C@H]1C(=O)N[C@@H](Cc1ccccc1)C(=O)N[C@@H](Cc1c[nH]c2ccccc12)C(=O)N[C@@H](CCCCN)C(=O)N[C@@H](Cc1ccc(O)cc1)C(N)=O [^68Ga-DOTA-AngII peptide, metal not drawn] ({DOTA}-K[βAla]DRVYIHPFWKY-NH2) yielded tissue uptake at 0.75 h of 1.54
